Exercise: state measured T/C for each of the molecules provided.
System: P388 leukemia ip, CD2F1 mice, survival T/C
METHOD: NCI In Vivo Anticancer Drug Screen. Data for tumor model P388 Leukemia (intraperitoneal) in CD2F1 (CDF1) mice
EXPERIMENTAL_CONDITIONS: endpoint: median survival time; dose: 50.0 mg/kg/injection; schedule: Q01DX009 (ip); vehicle: suspension in saline; higher = longer survival
Procedure: The antitumor activity of compounds was measured in mice bearing transplantable tumors. Survival or tumor size were measured and the results are expressed as the measurement made in the treated group (T) divided by the measurement made in the vehicle treated control group (C). The tumor model used in this assay is P388 Leukemia (intraperitoneal) in CD2F1 (CDF1) mice
Toxic doses and inconclusive results are not listed.

Here's what some known entries look like.
# MOLECULE, SYSTEM_TESTED, T/C
rows = [
    ("Cc1ccc(NC(=S)SCc2ccc3c(c2)OCO3)cc1Cl", "P388 leukemia ip, CD2F1 mice, survival T/C", "106 % of control"),
    ("CC(C(=O)O)c1ccc2oc(-c3ccc(Cl)cc3)nc2c1 (centres undefined)", "P388 leukemia ip, CD2F1 mice, survival T/C", "104 % of control"),
    ("Cc1cc(C)n2[nH]c(=O)cc2n1", "P388 leukemia ip, CD2F1 mice, survival T/C", "97 % of control"),
]

Reported T/C for `O=[N+]([O-])c1ccc(N2CCN(c3ccccc3)CC2)c2nonc12` : what is it? 100 % of control

---

Exercise: state measured T/C for each of the compounds provided.
System: P388 leukemia ip, CD2F1 mice, survival T/C
METHOD: NCI In Vivo Anticancer Drug Screen. Data for tumor model P388 Leukemia (intraperitoneal) in CD2F1 (CDF1) mice
EXPERIMENTAL_CONDITIONS: endpoint: median survival time; dose: 15.0 mg/kg/injection; schedule: Q01DX005 (ip); vehicle: saline with Tween-80; higher = longer survival
Toxic doses and inconclusive results are not listed.

Here's what some known entries look like.
# COMPOUND, VAL
rows = [
    ("CC1(C)CC2(C)OC(=O)c3ccccc3N2C(=S)N1 (centres undefined)", "94 % of control"),
    ("Cc1ccc(/C=C2/C(=O)N(c3ccccc3)N=C2c2ccccc2)cc1", "110 % of control"),
    ("Cc1cccc(C)c1NC(=O)Nc1cccc(C#N)c1", "91 % of control"),
]

Next, consider the following compound.
Reported T/C for `CC(C)(C)C1=CC(=CC=C2C=CN(CCO)C=C2)C=C(C(C)(C)C)C1=O` : what is it? 98 % of control

---

Exercise: state measured T/C for each of the molecules provided.
Test system: P388 leukemia ip, CD2F1 mice, survival T/C
METHOD: NCI In Vivo Anticancer Drug Screen. Data for tumor model P388 Leukemia (intraperitoneal) in CD2F1 (CDF1) mice
EXPERIMENTAL_CONDITIONS: endpoint: median survival time; dose: 100.0 mg/kg/injection; schedule: Q04DX003 (ip); vehicle: saline with Tween-80; higher = longer survival
Inconclusive results and toxic doses are left out.

Here's what some known entries look like.
# MOLECULE, SYSTEM_TESTED, T/C
measured = [
    ("CC(=O)c1nc2c(N)nc(N)nc2nc1C", "P388 leukemia ip, CD2F1 mice, survival T/C", "96 % of control"),
    ("c1ccc2[nH]cnc2c1", "P388 leukemia ip, CD2F1 mice, survival T/C", "100 % of control"),
    ("CCCCNC(=O)OCCN(CCOC(=O)NCCCC)C(=O)N1c2ccccc2Sc2ccccc21", "P388 leukemia ip, CD2F1 mice, survival T/C", "90 % of control"),
    ("Cc1ccc(C)c(C(O)C2CC2)c1 (configuration not stated)", "P388 leukemia ip, CD2F1 mice, survival T/C", "100 % of control"),
    ("Cc1c(Cl)cccc1NS(=O)(=O)c1ccccc1", "P388 leukemia ip, CD2F1 mice, survival T/C", "104 % of control"),
]

Please give T/C for each item listed below.
1. C/C=C/COCC
2. CSCCCCCCSC
3. CC(C)=CC1C(C(=O)OCc2ccc(C)cc2C)C1(C)C (configuration not stated)

1. 101 % of control
2. 100 % of control
3. 100 % of control

Please give T/C for each item listed below.
1. O=C(CC(O)(C(F)(F)F)C(F)(F)F)c1ccc(Cl)cc1
2. Oc1ccc2ccccc2c1N=Nc1ccc(Cl)cc1
3. O=[N+]([O-])c1ccc(N=Nc2ccccc2)cc1
4. Cc1cc2ncnn2cn1
5. CCC(=O)OC1CCC2C3CCC4=CC(=O)CCC4(C)C3CCC12C (configuration not stated)
6. COc1ccc(-c2nc3ccccc3[nH]2)cc1
7. COc1cc(/C=C(/C)[N+](=O)[O-])cc(Br)c1OC
8. O=C1OC2(c3ccccc31)c1cc(I)c(O)c(I)c1Oc1c2cc(I)c(O)c1I

1. 100 % of control
2. 100 % of control
3. 109 % of control
4. 99 % of control
5. 95 % of control
6. 106 % of control
7. 109 % of control
8. 91 % of control

---

Test system: P388 leukemia ip, CD2F1 mice, survival T/C
METHOD: NCI In Vivo Anticancer Drug Screen. Data for tumor model P388 Leukemia (intraperitoneal) in CD2F1 (CDF1) mice
EXPERIMENTAL_CONDITIONS: endpoint: median survival time; dose: 200.0 mg/kg/injection; schedule: Q01DX009 (ip); vehicle: saline; higher = longer survival
Method: The antitumor activity of compounds was measured in mice bearing transplantable tumors. Survival or tumor size were measured and the results are expressed as the measurement made in the treated group (T) divided by the measurement made in the vehicle treated control group (C). The tumor model used in this assay is P388 Leukemia (intraperitoneal) in CD2F1 (CDF1) mice
Toxic doses and inconclusive results are not listed.
ENDPOINT: T/C

Here's what some known entries look like.
# COMPOUND, T/C
rows = [
    ("[Cl][Cr]([Cl])[Cl].[NH-]CC[N-]CC[NH-]", "115 % of control"),
    ("COc1ccc2[nH]c3c(c2c1)CNCC3", "112 % of control"),
    ("COC(=O)CS(=O)(=O)CCS(=O)(=O)CC(=O)OC", "114 % of control"),
    ("Nc1nc(=S)c2ncn(C3CC(O)C(CO)O3)c2[nH]1 (stereo unspecified)", "114 % of control"),
    ("Nc1ccc2nnnn2n1", "98 % of control"),
    ("O=S(=O)(Cl)C(F)(F)C(F)(F)F", "103 % of control"),
    ("O=[N+]([O-])c1cc2c(cc1I)C1C(C3C2C2(Cl)C(Cl)=C(Cl)C3(Cl)C2(Cl)Cl)C2(Cl)C(Cl)=C(Cl)C1(Cl)C2(Cl)Cl (stereo unspecified)", "106 % of control"),
    ("S=C(Nc1ccc(N=Nc2ccccc2)cc1)SCc1ccc(Cl)cc1", "100 % of control"),
    ("CC(=O)c1c(O)c2ccccc2c2nc3ccccc3nc12", "91 % of control"),
    ("CCOC(=O)C1=C(C)N(Cc2ccccc2)C2(O)C1=CC(=O)C(Cl)=C2Cl (stereo unspecified)", "108 % of control"),
]

Next, consider the following compound.
Lab request: please report T/C under test system P388 leukemia ip, CD2F1 mice, survival T/C for `Fc1ccc(N=Cc2ccc(C=Nc3ccc(F)cc3)cc2)cc1` 97 % of control

---

Test system: P388 leukemia ip, CD2F1 mice, survival T/C
METHOD: NCI In Vivo Anticancer Drug Screen. Data for tumor model P388 Leukemia (intraperitoneal) in CD2F1 (CDF1) mice
EXPERIMENTAL_CONDITIONS: endpoint: median survival time; dose: 50.0 mg/kg/injection; schedule: Q01DX009 (ip); vehicle: water; higher = longer survival
Toxic doses and inconclusive results are not listed.
Exercise: state measured T/C for each of the compounds provided.

Here's what some known entries look like.
# COMPOUND, T/C
data = [
    ("CCOC(=O)/C=C/C(=O)NNS(=O)(=O)CCC(N)C(=O)O (stereo not given)", "100 % of control"),
    ("Cc1ccc(C)[nH][nH]c(N)n1", "101 % of control"),
    ("COc1cccc2c1C(=O)c1c(O)c3c(c(O)c1C2=O)C[C@@](O)(C(=O)CO)C[C@@H]3OC1CC(NC(C)=O)C(O)C(C)O1 (stereo not given in full)", "172 % of control"),
    ("CC(C)(C)OP(=O)(O)OC(C)(C)C", "100 % of control"),
]

Next, consider the following compound.
Reported T/C for CCN(CC)CCCC(C)NC(C)CCCN(CC)CC (stereo not given) : what is it? 104 % of control
